Test system: A549
method: Euclidean distance of Cell Painting phenotypic profile (signed KS, 77 features) to DMSO centroid (dimensionless distance); 5 or 10 uM (library dependent); higher = stronger phenotypic change vs DMSO (phenoactivity)
recorded_conditions: 48 h
Counter-ions that a name gives are not always drawn.
endpoint: Euclidean distance
// response body must contain only the number

Examples from the recorded data:
CN(C)CC[C@H](CSc1ccccc1)Nc1ccc(S(=O)(=O)NC(=O)c2ccc(N3CCN(Cc4ccccc4-c4ccc(Cl)cc4)CC3)cc2)cc1[N+](=O)[O-]; 2.83
COc1ccnc(C[S+]([O-])c2nc3cc(-n4cccc4)ccc3[nH]2)c1C (configuration not stated) [Ilaprazole]; 1.57
COC(=O)CCc1ccc(OCC(O)CNC(C)C)cc1 (configuration not stated) [Esmolol HCl]; 0.415
O=C(Cc1ccc(-c2ccc(OCCN3CCOCC3)cc2)cn1)NCc1ccccc1; 3.15
Cn1cc(C2=C(c3cn(CCCSC(=N)N)c4ccccc34)C(=O)NC2=O)c2ccccc21 [Ro 31-8220 Mesylate]; 3.02

API: value(readout=Euclidean distance, system=A549) for record CC(C)CC(=O)Nc1cncc(-c2ccc3[nH]nc(-c4nc5cncc(-c6cccc(F)c6)c5[nH]4)c3c2)c1
2.79

API: value(readout=Euclidean distance, system=A549) for record CCS(=O)(=O)N1CC(CC#N)(n2cc(-c3ncnc4[nH]ccc34)cn2)C1
0.875
